Tested on: SNB-75
Assay: NCI tumour cell line growth inhibition, 48 h
Activity calls are given as the source filed them. Rule as the data show it: active = GI50 up to about 1.1 µM and inactive = higher.
attribute-measured: GI50

[[record]]
compound = "CN1C(=O)C(=Cc2ccc(Br)cc2)C(=O)N(C)C1=O"
result = "> 100 µM (inactive)"


Input: Could you share which GI50 value was measured for N#Cc1c(-c2ccc(Cl)cc2)c2c([nH]c1=O)-c1ccccc1SC2 ?
Output: 27.5 µM (inactive)

Input: Moving on to COc1ccc(C(=O)C(C(=O)C(=O)Nc2nc3ccc(OC)cc3s2)c2ccc(OC)cc2)cc1 (configuration not stated)
Output: 26.5 µM (inactive)

Input: Moving on to Cc1cn(CC2=NC3CCCCC3N2)c(=O)[nH]c1=O (configuration not stated)
Output: > 100 µM (inactive)

Input: Moving on to Cc1cc(N(CCC#N)CCC#N)ccc1/C=C/C(=O)Nc1ccccc1Cl
Output: > 100 µM (inactive)

Input: Moving on to Cc1ccc(S(=O)(=O)NC(=O)NCc2ccc(S(N)(=O)=O)cc2)cc1
Output: > 100 µM (inactive)

Input: Moving on to c1ccc2cc3[s+]snc3cc2c1
Output: > 100 µM (inactive)

Input: Moving on to O=[N+]([O-])c1nccn1CC(O)CN1CCCCC1 (configuration not stated)
Output: > 100 µM (inactive)
